System: THP-1
Protocol Description: Cytotoxicity against human THP1 cells after 48 hrs assessed morphological changes compound exposed to light for 20 mins before treatment
Format: functional, cell-based
Active and inactive are the calls of the source. The rule behind the calls is not given here.

# Item Smiles, Test Target, Activity
rows = [
    ("Cc1cc(O)c2c(=O)c3c(O)cc(O)c4c5c(O)cc(O)c6c(=O)c7c(O)cc(C)c8c1c2c(c34)c(c78)c65", "THP-1", "Active"),
    ("Cc1cc(O)c2c(=O)c3c(O)cc(O)c4c5c(O)cc(O)c6c(=O)c7c(O)cc(C)cc7c(c65)c(c2c1)c34", "THP-1", "Active"),
    ("Cc1cc(O)c2c(c1)C(=O)c1cc(O)cc(O)c1C2=O", "THP-1", "Active"),
    ("Cc1cc(O)c2c(c1)Cc1cc(O)cc(O)c1C2=O", "THP-1", "Active"),
]

The origin of these recorded values is ChEMBL document CHEMBL1154270.
